# experimental target: CDK2 (Homo sapiens)
# Construct: High-Throughput Measurement of Cellular Endogenous CDK2; endogenous in cells
# test details: Inhibition of CDK2: phospho-Rb (S807/811) HTRF measurement in OVCAR3 cells, 24 h
# test conditions: 24 h compound treatment, read-out: pRB_OVCAR3_24h
pIC50: −log10 of the molar value.
Each entry below carries its recorded pIC50.

Illustrative cases are given below, each with its answer.
# molecule, experimental target, readout value
data = [
    ("O=C1CCC(N2C(=O)c3cc(F)c(N4CCN(CC5CCN(c6cccc(S(=O)(=O)N7CCC(Nc8ncc(C(F)(F)F)cn8)CC7)c6)CC5)CC4)cc3C2=O)C(=O)N1 (centres unmarked)", "CDK2 (Homo sapiens)", "6.30 to 7.00"),
    ("CC(Cc1cccc(S(=O)(=O)N2CCC(Nc3ncc(C(F)(F)F)cn3)CC2)c1)CN1CCN(c2cc3c(cc2F)C(=O)N(C2CCC(=O)NC2=O)C3)CC1 (centres unmarked)", "CDK2 (Homo sapiens)", "6.30 to 7.00"),
    ("Cn1nc(N2CCC(=O)NC2=O)c2ccc(C3CCN(CCCc4cccc(S(=O)(=O)N5CCC(Nc6ncc(OC(F)F)cn6)CC5)c4)CC3)cc21", "CDK2 (Homo sapiens)", "7.00 to 9.00"),
    ("Cn1nc(N2CCC(=O)NC2=O)c2cc(F)c(C3CCN(Cc4cccc(S(=O)(=O)N5CCC(Nc6ncc(Cl)cn6)CC5)c4)CC3)cc21", "CDK2 (Homo sapiens)", "6.30 to 7.00"),
    ("Cn1nc(N2CCC(=O)NC2=O)c2cc(C3CCN(CC4CCN(c5cccc(S(=O)(=O)N6CCC(Nc7ncc(C(F)(F)F)cn7)CC6)c5)CC4)CC3)ccc21", "CDK2 (Homo sapiens)", "6.30 to 7.00"),
]

Enter recorded pIC50 with CDK2 (Homo sapiens) for `Cn1nc(N2CCC(=O)NC2=O)c2ccc(C3CCN(CC4CCN(c5cccc(S(=O)(=O)N6CCC(Nc7ncc(OC(F)(F)F)cn7)CC6)c5)CC4)CC3)cc21` here.
7.00 to 9.00

Enter recorded pIC50 with CDK2 (Homo sapiens) for `Cn1nc(N2CCC(=O)NC2=O)c2ccc(C3CCN(CC4CCN(c5cccc(S(=O)(=O)N6CCC(Nc7ncc(F)cn7)CC6)c5)CC4)CC3)cc21` here.
5.60 to 6.30

Enter recorded pIC50 with CDK2 (Homo sapiens) for `Cn1nc(N2CCC(=O)NC2=O)c2ccc(N3CCC(CN4CC5CCC(C4)N5c4cccc(S(=O)(=O)N5CCC(Nc6ncc(Cl)cn6)CC5)c4)CC3)cc21` here.
< 5.60

Enter recorded pIC50 with CDK2 (Homo sapiens) for `Cn1nc(N2CCC(=O)NC2=O)c2ccc(C3CCN(CC4(C#N)CCN(c5cccc(S(=O)(=O)N6CCC(Nc7ncc(Cl)cn7)CC6)c5)CC4)CC3)cc21` here.
< 5.60

Enter recorded pIC50 with CDK2 (Homo sapiens) for CO[C@@H]1CN(S(=O)(=O)c2cccc(N3CCC(CN4CCC(c5ccc6c(N7CCC(=O)NC7=O)nn(C)c6c5)CC4)CC3)c2)CC[C@H]1Nc1ncc(Cl)cn1 (racemic) here.
< 5.60

Enter recorded pIC50 with CDK2 (Homo sapiens) for `O=C1CCN(c2nn(CC(F)(F)F)c3cc(N4CCN(Cc5cccc(S(=O)(=O)N6CCC(Nc7ncc(Cl)cn7)CC6)c5)CC4)ccc23)C(=O)N1` here.
6.30 to 7.00
